Target: Beta-lactamase VIM-2 (Pseudomonas aeruginosa) (UniProt Q9K2N0)
Assay: Inhibition of Pseudomonas aeruginosa 301-5473 VIM-2 expressed in Escherichia coli SNO3 whole cells using nitrocefin as substrate at 250 uM preincubated for 20 mins followed by substrate addition measured every min up to 60 mins by spectrophotometric analysis relative to control
MEASUREMENT LABEL: inhibition (%)
Provide the reading as a plain figure in %.

In [3]: df
Out[3]:
                                   compound  measurement_label  recorded_value
0  CCOP(=O)(OCC)C(CCCc1ccccc1)CSC(C)=O (stereo unspecified)         inhibition              14
1  CC(=O)SCC(CCCc1ccccc1)c1nnn[nH]1 (stereo unspecified)         inhibition              77
2  CC(=O)SCC(CCc1ccccc1)P(=O)(O)O (stereo unspecified)         inhibition              94
3  CC(=O)SCC(CCCCc1ccccc1)P(=O)(O)O (stereo unspecified)         inhibition              97
4  O=P(O)(O)C(CS)CCc1ccccc1 (stereo unspecified)         inhibition              92

Now, please, on to the next compound.
Which measured inhibition value corresponds to c1ccc(CCCC(CSC2CCCCC2)c2nnn[nH]2)cc1 (stereo unspecified) ?
73
